System: Adult mongrel dogs
Test: Cardiotonic activity: hemodynamic and inotropic responses (MAP, HR, dP/dt, contractile force) in anesthetized dogs, iv infusion
Type: in vivo, mongrel dog
Conditions: Canis lupus familiaris, Table 1, 1.875 mg/kg iv, cumulative dose, read-out: HR (heart rate), % from Control
Description: Adult mongrel dogs were anesthetized with sodium pentobarbital (45 mg/kg, i.p.) and artificially respired. Mean arterial pressure (MAP) was recorded from a cannulated femoral artery and drugs were infused into a cannulated femoral vein. […] Left ventricular pressure was measured with a Millar catheter and dP/dtmax was derived. A right thoracotomy was performed and myocardial contractile force (CF) was measured with a Walton Brodie strain gauge sutured to the right ventricle. […]
change in vivo at 1.875 mg/kg for assorted compounds

The examples below pair each entry with its known result.
Fc1ccc(C(c2ccc(F)cc2)N2CCN(CCCSc3ncnc4nc[nH]c34)CC2)cc1: 2%
OC(COc1ncnc2nc[nH]c12)CN1CCN(C(c2ccccc2)c2ccccc2)CC1 (centres unmarked): 2%
CC(=O)OC(CSc1ncnc2[nH]cnc12)CN1CCN(C(c2ccc(F)cc2)c2ccc(F)cc2)CC1 (centres unmarked) [Example 11, Hydrate]: -4%

Query string: Using the record for O[C@@H](CSc1ncnc2nc[nH]c12)CN1CCN(C(c2ccc(F)cc2)c2ccc(F)cc2)CC1 , report its change in vivo at 1.875 mg/kg.
Result string: -8%

Query string: Same for OC(COc1ncnc2[nH]cnc12)CN1CCN(C(c2ccc(F)cc2)c2ccc(F)cc2)CC1 (centres unmarked)
Result string: 12%
